The measured values listed here are drawn from patent US20190105367A1.

Provide the reported MIC of each item.
tested on: A. baumannii A472; experiment: MIC without and with sub-inhibitory polymyxin B (Example 4); assay type: cell-based, Acinetobacter baumannii; details: Acinetobacter baumannii, A472, A. baumannii A472; +[…] PB; 2nd experiment; read-out: MIC
Numeric only. Scale: µg/mL

In: Which MIC value is on record for Cc1c(-c2ccc(N)cc2)ccn2c(=O)c(C(=O)O)cc(C3CC3)c12 [Compound 8] ?
Out: 0.06

In: // same read-out, input: C[C@H]1COc2c(N3CCN(C)CC3)c(F)cc3c(=O)c(C(=O)O)cn1c23 [Levofloxacin, reference compound]
Out: 4

In: // same read-out, input: NCC[C@H](O)C(=O)N[C@@H]1C[C@H](N)[C@@H](O[C@H]2O[C@H](CN)[C@@H](O)[C@H](O)[C@H]2O)[C@H](O)[C@H]1O[C@H]1O[C@H](CO)[C@@H](O)[C@H](N)[C@H]1O [Amikacin, reference compound]
Out: 32

* * *

Provide the reported MBC of each item.
tested on: A. baumannii A472; assay: Preliminary MBC without and with sub-inhibitory polymyxin B (Example 4); assay type: cell-based, Acinetobacter baumannii; conditions: Acinetobacter baumannii, A472, read-out: MBC +[…] PB, A. baumannii A472; +[…] polymyxin B; preliminary MBC; 1st experiment
Numeric only. Scale: µg/mL

In: Which MBC value is on record for COc1c(N2C[C@@H]3CCCN[C@@H]3C2)c(F)cc2c(=O)c(C(=O)O)cn(C3CC3)c12 ?
Out: 4

In: // same read-out, input: NCC[C@H](O)C(=O)N[C@@H]1C[C@H](N)[C@@H](O[C@H]2O[C@H](CN)[C@@H](O)[C@H](O)[C@H]2O)[C@H](O)[C@H]1O[C@H]1O[C@H](CO)[C@@H](O)[C@H](N)[C@H]1O [Amikacin, reference compound]
Out: 32

* * *

test system: A. baumannii A401; assay: MIC without and with sub-inhibitory polymyxin B (Example 4); assay type: cell-based, Acinetobacter baumannii; conditions: A baumannii A 401; ratio, PB 0.06 μg/ml; 1st experiment
readout: MIC without PB/MIC + PB

In: Which MIC without PB/MIC + PB value is on record for NCC[C@H](O)C(=O)N[C@@H]1C[C@H](N)[C@@H](O[C@H]2O[C@H](CN)[C@@H](O)[C@H](O)[C@H]2O)[C@H](O)[C@H]1O[C@H]1O[C@H](CO)[C@@H](O)[C@H](N)[C@H]1O [Amikacin, reference compound] ?
Out: ≥1

In: // same read-out, input: Cc1c(-c2cc(Cl)c(N)c(Cl)c2)ccn2c(=O)c(C(=O)O)cc(C3CC3)c12 [Compound 3]
Out: 64

In: // same read-out, input: Cc1c(-c2cc(F)c(N)cc2F)ccn2c(=O)c(C(=O)O)cc(C3CC3)c12 [Compound 2]
Out: ≥128

* * *

tested on: Acinetobacter sp. (H064200250); test: MIC without and with sub-inhibitory polymyxin B (Example 4); type: cell-based; conditions: Acinetobacter spp. H064200250 (OXA51); +[…] PB; 2nd experiment
Provide the reported MIC without PB/MIC + PB of each item.
Give your answer as a number; write no unit.

In: Which MIC without PB/MIC + PB value is on record for Cc1c(-c2ccc(CN)cc2)c(F)cn2c(=O)c(C(=O)O)cc(C3CC3)c12 ?
Out: 8

In: // same read-out, input: Cc1c(-c2ccc(CN)c(F)c2)ccn2c(=O)c(C(=O)O)cc(C3CC3)c12
Out: 64

In: // same read-out, input: NCC[C@H](O)C(=O)N[C@@H]1C[C@H](N)[C@@H](O[C@H]2O[C@H](CN)[C@@H](O)[C@H](O)[C@H]2O)[C@H](O)[C@H]1O[C@H]1O[C@H](CO)[C@@H](O)[C@H](N)[C@H]1O [Amikacin, reference compound]
Out: 8

In: // same read-out, input: COc1c(N2C[C@@H]3CCCN[C@@H]3C2)c(F)cc2c(=O)c(C(=O)O)cn(C3CC3)c12
Out: 1

In: // same read-out, input: C[C@H]1COc2c(N3CCN(C)CC3)c(F)cc3c(=O)c(C(=O)O)cn1c23 [Levofloxacin, reference compound]
Out: 2

In: // same read-out, input: Cc1c(-c2ccc(N)cc2)ccn2c(=O)c(C(=O)O)cc(C3CC3)c12
Out: 32

In: // same read-out, input: Cc1c(-c2ccc(CN)cc2)ccn2c(=O)c(C(=O)O)cc(C3CC3)c12
Out: 4

In: // same read-out, input: Cc1c(-c2cc(Cl)c(N)c(Cl)c2)ccn2c(=O)c(C(=O)O)cc(C3CC3)c12
Out: 256
